Tested on: Saccharomyces cerevisiae BY4741 SeMeCo community
Test: z-score of subpopulation abundance vs DMSO median, subpopulation auxotrophic for LU; higher = larger share of this subpopulation than in DMSO controls
Conditions: 10 µM; 24 h; SM minimal medium; subpopulation (auxotrophy): LU
Binary classification by z-score of subpopulation abundance, with -0.2 as an inclusive lower bound for satisfied; all other cases are not satisfied.

compound=O=C(O)CCNC(=O)c1ccccc1 group="not satisfied"
compound=C[C@@H](c1ncncc1F)[C@](O)(Cn1cncn1)c1ccc(F)cc1F group=satisfied
compound="Cc1ncc([N+](=O)[O-])n1CC(C)O (configuration not stated)" group=satisfied
compound="CC[C@H](C)C[C@H](C)CCCCCCCCC(=O)N[C@H]1C[C@@H](O)[C@@H](NCCN)NC(=O)[C@@H]2[C@@H](O)CCN2C(=O)[C@H]([C@H](O)CCN)NC(=O)[C@H]([C@H](O)[C@@H](O)c2ccc(O)cc2)NC(=O)[C@@H]2C[C@@H](O)CN2C(=O)[C@H]([C@@H](C)O)NC1=O [Caspofungin Acetate]" group=satisfied
compound="c1ccc(-c2ccc(C(c3ccccc3)n3ccnc3)cc2)cc1 (configuration not stated)" group="not satisfied"
compound="CN1CCN(C2=Nc3ccccc3Oc3ccc(Cl)cc32)CC1 [Loxapine Succinate]" group=satisfied
compound="COc1ccnc(C[S+]([O-])c2nc3cc(OC(F)F)ccc3[nH]2)c1OC (configuration not stated) [Pantoprazole sodium]" group="not satisfied"

====

Items are presented alongside their recorded z-score of subpopulation abundance.
Test system: Saccharomyces cerevisiae BY4741 SeMeCo community
Assay: z-score of subpopulation abundance vs DMSO median, subpopulation auxotrophic for LUM; higher = larger share of this subpopulation than in DMSO controls
Conditions: 10 µM; 24 h; SM minimal medium; subpopulation (auxotrophy): LUM
Structures can show the parent of a compound that is named as a salt.
MEASUREMENT_NAME: z-score of subpopulation abundance

molecule="NC[C@H]1O[C@H](O[C@H]2[C@H](O[C@@H]3O[C@H](CO)[C@@H](O)[C@H]3O)[C@@H](O)[C@H](N)C[C@@H]2N)[C@H](N)[C@@H](O)[C@@H]1O [Ribostamycin Sulfate]" experimental_system="Saccharomyces cerevisiae BY4741 SeMeCo community" test_result=-0.84
molecule=CCOC(=O)C1=C(C)NC(C)=C(C(=O)OCC)C1c1ccccc1/C=C/C(=O)OC(C)(C)C experimental_system="Saccharomyces cerevisiae BY4741 SeMeCo community" test_result=-1.16
molecule="CC1(C)S[C@@H]2[C@H](NC(=O)[C@H](N)c3ccccc3)C(=O)N2[C@H]1C(=O)OCOC(=O)[C@@H]1N2C(=O)C[C@H]2S(=O)(=O)C1(C)C [Sultamicillin Tosylate]" experimental_system="Saccharomyces cerevisiae BY4741 SeMeCo community" test_result=-0.41
molecule="C[C@H]1COc2c(C3(N)CC3)c(F)cc3c(=O)c(C(=O)O)cn1c23 [Pazufloxacin mesylate]" experimental_system="Saccharomyces cerevisiae BY4741 SeMeCo community" test_result=-0.3
molecule="COc1ccnc(C[S+]([O-])c2nc3cc(-n4cccc4)ccc3[nH]2)c1C (configuration not stated) [Ilaprazole sodium]" experimental_system="Saccharomyces cerevisiae BY4741 SeMeCo community" test_result=0.43
molecule="CCCCN1CCCCC1C(=O)Nc1c(C)cccc1C (configuration not stated) [Bupivacaine HCl]" experimental_system="Saccharomyces cerevisiae BY4741 SeMeCo community" test_result=-0.72
molecule=Oc1ccc([C@H]2COc3cc(O)ccc3C2)cc1 experimental_system="Saccharomyces cerevisiae BY4741 SeMeCo community" test_result=-0.14
